Some binders, each annotated with its measured Maximal Blocking (%).
target: T1, hErbB3.hFc (soluble dimeric human ErbB3 extracellular domain fused to human Fc) (human); test: blocking ELISA: antibody + 50 pM ErbB3-hFc on neuregulin1b-coated plate
T1 construct: called dimeric
T1 sequence (chain, as listed by the source limits assumed): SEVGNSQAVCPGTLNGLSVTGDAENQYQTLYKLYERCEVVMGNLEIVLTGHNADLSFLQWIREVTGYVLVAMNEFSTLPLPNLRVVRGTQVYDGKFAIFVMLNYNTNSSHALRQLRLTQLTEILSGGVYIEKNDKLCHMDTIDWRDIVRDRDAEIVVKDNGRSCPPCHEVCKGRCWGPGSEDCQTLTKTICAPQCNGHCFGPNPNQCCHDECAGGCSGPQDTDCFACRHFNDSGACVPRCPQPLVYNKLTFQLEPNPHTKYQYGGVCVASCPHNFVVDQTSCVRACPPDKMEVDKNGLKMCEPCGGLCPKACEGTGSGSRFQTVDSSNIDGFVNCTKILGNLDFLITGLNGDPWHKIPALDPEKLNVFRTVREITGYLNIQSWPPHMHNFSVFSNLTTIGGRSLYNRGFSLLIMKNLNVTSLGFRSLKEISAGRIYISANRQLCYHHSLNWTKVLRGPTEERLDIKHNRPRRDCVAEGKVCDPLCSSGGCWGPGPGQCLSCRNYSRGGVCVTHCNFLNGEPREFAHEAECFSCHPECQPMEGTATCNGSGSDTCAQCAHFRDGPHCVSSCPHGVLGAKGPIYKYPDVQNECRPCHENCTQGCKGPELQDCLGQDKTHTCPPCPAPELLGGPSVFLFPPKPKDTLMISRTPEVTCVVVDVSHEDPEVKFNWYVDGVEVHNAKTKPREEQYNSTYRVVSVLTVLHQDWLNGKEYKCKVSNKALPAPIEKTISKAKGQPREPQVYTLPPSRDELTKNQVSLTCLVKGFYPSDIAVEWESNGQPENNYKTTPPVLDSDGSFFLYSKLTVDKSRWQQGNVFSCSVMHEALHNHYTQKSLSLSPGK
Report only the number, with the unit % understood.

BINDER	Maximal Blocking (%)
H2M1824N (antibody, V domains shown, Hybridoma chimeric antibody: human variable domains, mouse IgG2 Fc (H2M prefix)) VH: EVQLVESGGGVVRPGGSLRLSCAASGFTFDDYGMSWVRQAPGKGLECVSGINWNGGSTDYADSVKGRFTISRDNAKNSLYLQMNSLRAEDTASYYCARDGGDWDYFDLWGRGTLVTVSS VL: EIVMTQSPATLSVSPGERATLSCRASQSVSSNLAWYQQKPGQAPRLLIYGASTRATGIPARFSGSGSGTEFTLTISSLQSEDFAVYFCQEYNDWPLTFGGGTKVEIK	99

Read the next record carefully.
Input line: Item H1M1828N (antibody, V domains shown, Hybridoma chimeric antibody: human variable domains, mouse constant domains (H1M prefix, mouse Fc)) VH: EVQLVESGGGLVQPGRSLRLSCAASGFTFDDYAMYWVRQAPGKGLEWVSGISWNSGSIGYADSVKGRFTISRDNAKNSLYLQMDSLRAEDTALYYCARDMMEVDLYGMDVWGQGTTVTVSS VL: DIQMTQSPSSVSASVGDRVTITCRASQDISSWLAWYQQKPGTAPKFLIYETSSLQSGVPSRFSGSGSGTDFILTISSLQPEDFATYYCQQTDSFPHTFGQGTKLEIR has what recorded Maximal Blocking (%)?
Output line: 95

Where these numbers come from: patent US20140072563A1
